test system: Staphylococcus aureus; assay: Antibacterial activity against methicillin-resistant Staphylococcus aureus ATCC 700699 after 24 hrs by spectrophotometric analysis; type: functional, organism-based; settings: Staphylococcus aureus, ATCC 700699, 24 h
readoutType: MIC (µg/mL)
Write down the numeric answer in µg/mL and omit the unit.

Give the measured MIC of CCn1cc(C(=O)O)c(=O)c2cc(F)c(N3CCN(C(c4ccco4)c4nnnn4C(C)(C)C)CC3)cc21 (stereo not given) . 46.9

Give the measured MIC of O=C(O)c1cn(C2CC2)c2cc(N3CCNCC3)c(F)cc2c1=O [CIPROFLOXACIN] . 20.2

Give the measured MIC of CCn1cc(C(=O)O)c(=O)c2cc(F)c(N3CCN(C(c4ccc(C(C)C)cc4)c4nnnn4C(C)(C)C)CC3)cc21 (stereo not given) . 50

Give the measured MIC of CCn1cc(C(=O)O)c(=O)c2cc(F)c(N3CCN(C(c4ccncc4)c4nnnn4C(C)(C)C)CC3)cc21 (stereo not given) . 50

Give the measured MIC of CCn1cc(C(=O)O)c(=O)c2cc(F)c(N3CCN(C(c4cccc5ccccc45)c4nnnn4C4CCCCC4)CC3)cc21 (stereo not given) . 8.2

Give the measured MIC of CCn1cc(C(=O)O)c(=O)c2cc(F)c(N3CCN(C(c4ccc(OC)c(OC)c4OC)c4nnnn4C(C)(C)C)CC3)cc21 (stereo not given) . 50

Give the measured MIC of CCn1cc(C(=O)O)c(=O)c2cc(F)c(N3CCN(C(c4ccc(F)cc4)c4nnnn4C4CCCCC4)CC3)cc21 (stereo not given) . 50

Give the measured MIC of O=C(O)c1cn(Cc2ccc(C(F)(F)F)cc2)c2cc(N3CCN(C(c4ccncc4)c4nnnn4C4CCCCC4)CC3)c(F)cc2c1=O (stereo not given) . 50

Give the measured MIC of CC(C)(C)n1nnnc1C(c1cccc2ccccc12)N1CCN(c2cc3c(cc2F)c(=O)c(C(=O)O)cn3Cc2ccc(C(F)(F)F)cc2)CC1 (stereo not given) . 50

Give the measured MIC of CCn1cc(C(=O)O)c(=O)c2cc(F)c(N3CCN(C(c4ccc(F)cc4)c4nnnn4C(C)(C)C)CC3)cc21 (stereo not given) . 12.5

Give the measured MIC of CC(C)(C)n1nnnc1C(c1ccncc1)N1CCN(c2cc3c(cc2F)c(=O)c(C(=O)O)cn3Cc2ccc(C(F)(F)F)cc2)CC1 (stereo not given) . 50

Give the measured MIC of CCn1cc(C(=O)O)c(=O)c2cc(F)c(N3CCN(C(c4ccc(C(C)C)cc4)c4nnnn4C4CCCCC4)CC3)cc21 (stereo not given) . 50

====

system: Staphylococcus aureus; test: Antibacterial activity against gentamicin-resistant Staphylococcus aureus ATCC 33592 after 24 hrs by spectrophotometric analysis; assay type: functional, organism-based; conditions: Staphylococcus aureus, ATCC 33592, 24 h
Consider the following compounds; for each one, report its MIC.
Write down the numeric answer in µg/mL and omit the unit.

Give the measured MIC of "O=C(O)c1cn(C2CC2)c2cc(N3CCNCC3)c(F)cc2c1=O" . 0.4

Give the measured MIC of CCn1cc(C(=O)O)c(=O)c2cc(F)c(N3CCN(C(c4ccncc4)c4nnnn4C(C)(C)C)CC3)cc21 (configuration not stated) . 0.7

Give the measured MIC of CCn1cc(C(=O)O)c(=O)c2cc(F)c(N3CCN(C(c4ccc(OC)c(OC)c4OC)c4nnnn4C(C)(C)C)CC3)cc21 (configuration not stated) . 0.87

Give the measured MIC of CCn1cc(C(=O)O)c(=O)c2cc(F)c(N3CCN(C(c4ccco4)c4nnnn4C4CCCCC4)CC3)cc21 (configuration not stated) . 0.88

====

tested on: Staphylococcus aureus; assay: Antibacterial activity against methicillin-resistant Staphylococcus aureus ATCC 700699 by NCCLS two-fold dilution method; assay type: functional
readoutType: MIC

Give the measured MIC of CC(C)(C)n1nnnc1C(c1ccc(F)cc1)N1CCN(c2cc3c(cc2F)c(=O)c(C(=O)O)cn3Cc2ccc(C(F)(F)F)cc2)CC1 (stereo unspecified) . 25 µg/mL

Give the measured MIC of CCn1cc(C(=O)O)c(=O)c2cc(F)c(N3CCN(C(c4ccc(OC)c(OC)c4OC)c4nnnn4C(C)(C)C)CC3)cc21 (stereo unspecified) . 50 µg/mL

Give the measured MIC of CCn1cc(C(=O)O)c(=O)c2cc(F)c(N3CCN(C(c4ccco4)c4nnnn4C4CCCCC4)CC3)cc21 (stereo unspecified) . 25 µg/mL

Give the measured MIC of CCn1cc(C(=O)O)c(=O)c2cc(F)c(N3CCN(C(c4ccc(OC)c5ccccc45)c4nnnn4C(C)(C)C)CC3)cc21 (stereo unspecified) . 12.5 µg/mL

Give the measured MIC of O=C(O)c1cn(Cc2ccc(C(F)(F)F)cc2)c2cc(N3CCN(C(c4ccccc4)c4nnnn4C4CCCCC4)CC3)c(F)cc2c1=O (stereo unspecified) . > 50 µg/mL

Give the measured MIC of O=C(O)c1cn(Cc2ccc(C(F)(F)F)cc2)c2cc(N3CCN(C(c4ccc(F)cc4)c4nnnn4C4CCCCC4)CC3)c(F)cc2c1=O (stereo unspecified) . > 50 µg/mL

Give the measured MIC of CC(C)c1ccc(C(c2nnnn2C2CCCCC2)N2CCN(c3cc4c(cc3F)c(=O)c(C(=O)O)cn4Cc3ccc(C(F)(F)F)cc3)CC2)cc1 (stereo unspecified) . > 50 µg/mL

Give the measured MIC of O=C(O)c1cn(Cc2ccc(C(F)(F)F)cc2)c2cc(N3CCN(C(c4ccco4)c4nnnn4C4CCCCC4)CC3)c(F)cc2c1=O (stereo unspecified) . 50 µg/mL

Give the measured MIC of CCn1cc(C(=O)O)c(=O)c2cc(F)c(N3CCN(C(c4ccncc4)c4nnnn4C4CCCCC4)CC3)cc21 (stereo unspecified) . 50 µg/mL

Give the measured MIC of COc1ccc(C(c2nnnn2C(C)(C)C)N2CCN(c3cc4c(cc3F)c(=O)c(C(=O)O)cn4Cc3ccc(C(F)(F)F)cc3)CC2)c(OC)c1OC (stereo unspecified) . 50 µg/mL

Give the measured MIC of CC(C)(C)n1nnnc1C(c1ccncc1)N1CCN(c2cc3c(cc2F)c(=O)c(C(=O)O)cn3Cc2ccc(C(F)(F)F)cc2)CC1 (stereo unspecified) . 50 µg/mL

Give the measured MIC of O=C(O)c1cn(Cc2ccc(C(F)(F)F)cc2)c2cc(N3CCN(C(c4ccncc4)c4nnnn4C4CCCCC4)CC3)c(F)cc2c1=O (stereo unspecified) . 50 µg/mL

Give the measured MIC of CC(C)(C)n1nnnc1C(c1cccc2ccccc12)N1CCN(c2cc3c(cc2F)c(=O)c(C(=O)O)cn3Cc2ccc(C(F)(F)F)cc2)CC1 (stereo unspecified) . 50 µg/mL

Give the measured MIC of CCn1cc(C(=O)O)c(=O)c2cc(F)c(N3CCN(C(c4ccncc4)c4nnnn4C(C)(C)C)CC3)cc21 (stereo unspecified) . 50 µg/mL

Give the measured MIC of CCn1cc(C(=O)O)c(=O)c2cc(F)c(N3CCN(C(c4ccccc4)c4nnnn4C4CCCCC4)CC3)cc21 (stereo unspecified) . 12.5 µg/mL

Give the measured MIC of COc1ccc(C(c2nnnn2C2CCCCC2)N2CCN(c3cc4c(cc3F)c(=O)c(C(=O)O)cn4Cc3ccc(C(F)(F)F)cc3)CC2)c2ccccc12 (stereo unspecified) . > 50 µg/mL

Give the measured MIC of CCn1cc(C(=O)O)c(=O)c2cc(F)c(N3CCN(C(c4ccc(OC)c(OC)c4OC)c4nnnn4C4CCCCC4)CC3)cc21 (stereo unspecified) . 25 µg/mL

Give the measured MIC of CC(C)(C)n1nnnc1C(c1ccccc1)N1CCN(c2cc3c(cc2F)c(=O)c(C(=O)O)cn3Cc2ccc(C(F)(F)F)cc2)CC1 (stereo unspecified) . 25 µg/mL

Give the measured MIC of CCn1cc(C(=O)O)c(=O)c2cc(F)c(N3CCN(C(c4ccc(OC)c5ccccc45)c4nnnn4C4CCCCC4)CC3)cc21 (stereo unspecified) . 25 µg/mL

Give the measured MIC of CCn1cc(C(=O)O)c(=O)c2cc(F)c(N3CCN(C(c4ccc(F)cc4)c4nnnn4C4CCCCC4)CC3)cc21 (stereo unspecified) . 50 µg/mL

Give the measured MIC of COc1ccc(C(c2nnnn2C2CCCCC2)N2CCN(c3cc4c(cc3F)c(=O)c(C(=O)O)cn4Cc3ccc(C(F)(F)F)cc3)CC2)c(OC)c1OC (stereo unspecified) . > 50 µg/mL

====

tested on: Staphylococcus aureus; assay: Antibacterial activity against Staphylococcus aureus ATCC 25923 after 24 hrs by spectrophotometric analysis; assay type: functional, organism-based; details: Staphylococcus aureus, ATCC 25923, 24 h
# yes (1) = MIC below 20 µg/mL (exclusive); no (0) = MIC at/above 20 µg/mL

Lab note: confirm whether the reported MIC for this compound is below 20 µg/mL, equality not counting. compound: CCn1cc(C(=O)O)c(=O)c2cc(F)c(N3CCN(C(c4ccc(C(C)C)cc4)c4nnnn4C(C)(C)C)CC3)cc21 (configuration not stated) no (0)

Lab note: confirm whether the reported MIC for this compound is below 20 µg/mL, equality not counting. compound: CC(C)(C)n1nnnc1C(c1ccncc1)N1CCN(c2cc3c(cc2F)c(=O)c(C(=O)O)cn3Cc2ccc(C(F)(F)F)cc2)CC1 (configuration not stated) no (0)

Lab note: confirm whether the reported MIC for this compound is below 20 µg/mL, equality not counting. compound: COc1ccc(C(c2nnnn2C(C)(C)C)N2CCN(c3cc4c(cc3F)c(=O)c(C(=O)O)cn4Cc3ccc(C(F)(F)F)cc3)CC2)c(OC)c1OC (configuration not stated) no (0)

Lab note: confirm whether the reported MIC for this compound is below 20 µg/mL, equality not counting. compound: "O=C(O)c1cn(C2CC2)c2cc(N3CCNCC3)c(F)cc2c1=O" yes (1)

Lab note: confirm whether the reported MIC for this compound is below 20 µg/mL, equality not counting. compound: O=C(O)c1cn(Cc2ccc(C(F)(F)F)cc2)c2cc(N3CCN(C(c4ccccc4)c4nnnn4C4CCCCC4)CC3)c(F)cc2c1=O (configuration not stated) yes (1)

Lab note: confirm whether the reported MIC for this compound is below 20 µg/mL, equality not counting. compound: O=C(O)c1cn(Cc2ccc(C(F)(F)F)cc2)c2cc(N3CCN(C(c4ccc(F)cc4)c4nnnn4C4CCCCC4)CC3)c(F)cc2c1=O (configuration not stated) yes (1)

Lab note: confirm whether the reported MIC for this compound is below 20 µg/mL, equality not counting. compound: CCn1cc(C(=O)O)c(=O)c2cc(F)c(N3CCN(C(c4ccco4)c4nnnn4C4CCCCC4)CC3)cc21 (configuration not stated) yes (1)
